These entries and their values trace back to ChEMBL document CHEMBL1201862.

System: T47D
protocol_notes: NCI tumour cell line growth inhibition, 48 h
Calls of active or inactive are those of the source. Rule as the data show it: active = GI50 up to about 1.1 µM and inactive = higher.
Classes used: active, inactive

{"compound": "CO[C@@H]1C[C@H](OC(N)=O)[C@@H]2C=C[C@@H]3/C=C(C)/C=C/[C@@H](C)[C@H](/C(C)=C/[C@@H](C)NC(C)=O)OC(=O)/C=C/C=C(C)\\C=C\\[C@]3(C)[C@@H]2C1 [SUPERSTOLIDE B]", "classification": "active"}
{"compound": "O=C1CC2OCC=C3CN4CCC5(C(=O)O)C(N1)C2C3CC45 (centres undefined)", "classification": "inactive"}
{"compound": "O=C(CN1c2ccccc2Sc2ccccc21)n1cnc2ccccc21", "classification": "inactive"}
{"compound": "Cc1cc(C)n(C2OC(CO)C(O)C(O)C2O)c(=S)c1C#N (centres undefined)", "classification": "inactive"}
{"compound": "C[n+]1ccn2c3nc4ccccc4nc3c([O-])c(C#N)c21", "classification": "inactive"}
{"compound": "Cc1cc(OCc2nn(CN3CCN(C)CC3)c(=S)n2/N=C/c2ccc(-c3ccc(Cl)cc3Cl)o2)ccc1Cl", "classification": "inactive"}
{"compound": "CC(C)(C)OC(=O)N(CCCCNCc1ccc2ccccc2c1)CCCNCc1ccc2ccccc2c1", "classification": "inactive"}
{"compound": "COc1cccc2nc3ccccc3nc12", "classification": "inactive"}
{"compound": "CCC(=O)/C=C/c1ccccc1", "classification": "inactive"}
{"compound": "Nc1nc(SCC(=O)O)nc(O)c1N", "classification": "inactive"}
{"compound": "CCCC(C)c1c(Cl)nc(Cl)nc1Cl (centres undefined)", "classification": "inactive"}
{"compound": "Cc1c(-c2ccc(-c3ccccc3F)cc2)nc2ccc(F)cc2c1C(=O)O [BREQUINAR SODIUM]", "classification": "inactive"}
{"compound": "CCC1CC(=O)N(SCC(N)C(=O)O)C1=O (centres undefined)", "classification": "inactive"}
{"compound": "COC(=O)C1=C(C(=O)OC)SC2(S1)C(C(=O)OC)=C(C(=O)OC)Sc1c2ss/c1=N\\c1ccc(Cl)cc1", "classification": "active"}
{"compound": "CC(=O)N1C(CCc2ccccc2)CC(C)(C=O)C1Cc1ccc(O[Si](C(C)C)(C(C)C)C(C)C)cc1 (centres undefined)", "classification": "inactive"}
{"compound": "N=c1c2c3n(c4c(=O)n(-c5ccccc5)c(=S)n(c(=O)n1-c1ccccc1)c24)CCCCC3", "classification": "inactive"}
{"compound": "CCN1C[C@]2(C)CC[C@H](OC)C34C5C[C@@H]6[C@@H](OC)C[C@@](OC)(C5[C@H]6OCc5ccccc5)C(C13)[C@H](OC(C)=O)[C@@H]42 (some centres undefined)", "classification": "inactive"}
{"compound": "CCCCCCCCCCCCOCCCCCCCCC/C=C/c1ccc2c(c1)OCCOCCOCCOCCO2", "classification": "inactive"}
{"compound": "CC1OC(O)CC(N(C)C)C1O.CC1OC(O)CCC1O.CCC1CC(O)c2c(O)c3c(c(O)c2C1O)C(=O)c1cccc(O)c1C3=O (centres undefined)", "classification": "active"}
